# Test system: primary human hepatic stellate cells (donor 1)
# assay details: scaled lipid accumulation score (0 = DMSO-like, 1 = nortriptyline-like); higher = stronger HSC inactivation (lipid re-accumulation), active = hit call of the paper
# run parameters: library stock concentration: 10 mM; 48 h
Counter-ions that a name gives are not always drawn. About 620 (11%) of roughly 5,800 compounds showed activity.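 The calls were made as follows: active = score above a cut-off or among the top three wells of a plate; in these data no inactive exceeds 0.85.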 This is one part of a sample in which actives are shown more often than they occur.
// classify into active, inactive

Nc1ccccc1NC(=O)c1ccc(CNC(=O)OCc2cccnc2)cc1 [Entinostat (MS-275)] = inactive
CO/N=C(\C(=O)N[C@@H]1C(=O)N2C(C(=O)O)=C(CSc3nnnn3C)CS[C@H]12)c1csc(N)n1 = inactive
COc1cc2nccc(Oc3ccc(NC(=O)Nc4cc(C)on4)c(Cl)c3)c2cc1OC [Tivozanib (AV-951)] = inactive
C[Se]CC[C@H](N)C(=O)O = inactive
C[C@@H]1CN(CCCn2c3ccccc3c3ccccc32)C[C@H](C)N1.Cl.Cl [Rimcazole dihydrochloride] = active
CO[C@H]1O[C@@H]2O[C@@]3(C)CC[C@H]4[C@H](C)CC[C@@H]([C@H]1C)[C@@]24OO3 = inactive
Cc1cnc(-c2cc(N3CCN(C(=O)CCS(C)(=O)=O)CC3)ncc2Cl)c(C)c1 = inactive
COCCOc1cc2nc[nH]c(=O)c2cc1OCCOC = inactive
CNC(=O)c1c(F)cccc1Nc1nc(Nc2cc3c(cc2OC)CCN3C(=O)CN(C)C)nc2[nH]ccc12 = inactive
Nc1ccccc1NC(=O)c1ccc(CNC(=O)OCc2cccnc2)cc1 = inactive

(Q) Give the logged outcome of this assay for the following molecule: `CCN1C(=CC(C)=O)Sc2ccc(OC)cc21`
(A) inactive

(Q) Check the results log: what was the call for `Nc1ccccc1NC(=O)c1ccc(CNc2nccc(-c3cccnc3)n2)cc1` ?
(A) inactive

(Q) Recorded test call requested for `Cc1cc(OCc2nnc(SC3CCCC3)n2-c2cccnc2)ccc1-c1ccc(S(C)(=O)=O)cc1`
(A) inactive

(Q) Returns: the outcome recorded for `CC(C)(F)C[C@H](N[C@@H](c1ccc(-c2ccc(S(C)(=O)=O)cc2)cc1)C(F)(F)F)C(=O)NC1(C#N)CC1` in this assay.
(A) inactive

(Q) Status in this test for `CO[C@@H]1[C@@H](O[C@@H]2O[C@H](C)[C@@H](O[C@H]3C[C@@](C)(O)[C@@H](OC(=O)CC(C)C)[C@H](C)O3)[C@H](N(C)C)[C@H]2O)[C@@H](CC=O)C[C@@H](C)[C@@H](O)/C=C/C=C/C[C@@H](C)OC(=O)C[C@H]1O` ?
(A) inactive

(Q) Assay result, entry Cl.Cl.OCCN1CCN(CC/C=C2/c3ccccc3Sc3ccc(C(F)(F)F)cc32)CC1 [cis-(Z)-Flupenthixol dihydrochloride] — outcome?
(A) active

(Q) What classification did `COc1cc2nccc(Oc3ccc(NC(=O)NC4CC4)c(Cl)c3)c2cc1C(N)=O` end up with in this test?
(A) inactive

(Q) Please state the recorded outcome for this molecule: `O=C(Cc1cccs1)N[C@@H]1C(=O)N2C(C(=O)[O-])=C(C[n+]3ccccc3)CS[C@H]12`
(A) inactive

(Q) // return assay outcome for `C[C@@H]1C[C@H]2[C@@H]3C[C@H](F)C4=CC(=O)C(Cl)=C[C@]4(C)[C@@]3(F)[C@@H](O)C[C@]2(C)[C@@]1(O)C(=O)CO`
(A) inactive

(Q) What did the test return for `NC(=O)N/N=C/c1ccc(Oc2ccc(F)cc2)cc1` ?
(A) inactive

(Q) For this molecule, state the assay outcome: COC(=O)C(N)CS (stereo not given) [Mecysteine hydrochloride]
(A) inactive
